Biological target: T1, human PRLR (Biacore antigen) (human, UniProt P16471 25-234, limits assumed)
T1 construct: The construct injected over captured antibody is not described (a soluble form is likely); also called huPRLR
T1 sequence: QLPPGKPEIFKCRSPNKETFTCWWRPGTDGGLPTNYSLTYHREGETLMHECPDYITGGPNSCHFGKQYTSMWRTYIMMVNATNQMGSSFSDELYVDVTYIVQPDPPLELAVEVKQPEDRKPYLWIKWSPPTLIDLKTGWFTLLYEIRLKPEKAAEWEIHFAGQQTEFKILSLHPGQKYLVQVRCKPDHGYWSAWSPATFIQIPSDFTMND
Test: SPR simultaneous binding; PRLR held by surface mAb chAb5
measured.property: solution mAb binding, % of PRLR binding (%)
One number for each entry, in %.

The measured solution mAb binding, % of PRLR binding associated with Ab21 (antibody, human IgG1, kappa, V domains shown, humanized from Ab6; G1; also called Ab1 HC.1a and Ab1 LC.2a) VH: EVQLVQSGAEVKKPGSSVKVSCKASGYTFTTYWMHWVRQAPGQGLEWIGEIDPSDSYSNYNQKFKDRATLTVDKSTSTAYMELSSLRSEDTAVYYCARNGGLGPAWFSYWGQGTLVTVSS VL: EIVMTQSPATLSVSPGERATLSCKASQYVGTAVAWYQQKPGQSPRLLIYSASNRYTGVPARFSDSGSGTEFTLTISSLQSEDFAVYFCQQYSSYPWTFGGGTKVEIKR reads -1

Items follow; give solution mAb binding, % of PRLR binding for each.
1. chAb8 (antibody, human IgG1, kappa, V domains shown, chimeric, murine variable and human G1/kappa constant regions) VH: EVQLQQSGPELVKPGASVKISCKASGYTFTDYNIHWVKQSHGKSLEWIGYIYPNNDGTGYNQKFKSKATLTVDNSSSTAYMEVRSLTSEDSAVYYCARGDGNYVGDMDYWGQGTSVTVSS VL: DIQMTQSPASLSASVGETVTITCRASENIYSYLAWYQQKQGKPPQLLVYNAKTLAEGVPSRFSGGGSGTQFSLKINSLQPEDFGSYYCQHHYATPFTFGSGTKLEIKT
2. chAb7 (antibody, human IgG1, kappa, V domains shown, chimeric, murine variable and human G1/kappa constant regions) VH: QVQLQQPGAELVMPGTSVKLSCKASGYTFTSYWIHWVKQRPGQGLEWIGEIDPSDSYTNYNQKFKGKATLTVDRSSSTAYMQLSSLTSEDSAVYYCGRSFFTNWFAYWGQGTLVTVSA VL: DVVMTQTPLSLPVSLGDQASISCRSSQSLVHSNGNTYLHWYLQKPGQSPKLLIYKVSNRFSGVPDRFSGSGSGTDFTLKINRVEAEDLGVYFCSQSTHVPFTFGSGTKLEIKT

Result:
1. 0
2. -1

Record solution mAb binding, % of PRLR binding per entry; entries follow.
1. Ab48 (antibody, human IgG1, kappa, V domains shown, humanized from Ab8; G1; also called Ab3 HC.1a and Ab3 LC.1a) VH: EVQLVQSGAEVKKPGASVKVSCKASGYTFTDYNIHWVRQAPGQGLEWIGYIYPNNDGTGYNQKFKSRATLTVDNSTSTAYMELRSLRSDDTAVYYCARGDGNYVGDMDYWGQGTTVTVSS VL: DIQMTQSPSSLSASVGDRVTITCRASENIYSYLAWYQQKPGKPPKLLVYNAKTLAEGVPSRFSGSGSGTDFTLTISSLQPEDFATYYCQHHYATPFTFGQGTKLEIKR
2. Ab30 (antibody, human IgG1, kappa, V domains shown, humanized from Ab5; G1; also called Ab2 HC.1a and Ab2 LC.1a) VH: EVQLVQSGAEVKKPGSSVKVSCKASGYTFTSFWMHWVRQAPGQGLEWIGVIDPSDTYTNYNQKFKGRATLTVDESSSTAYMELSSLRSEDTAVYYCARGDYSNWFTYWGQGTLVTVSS VL: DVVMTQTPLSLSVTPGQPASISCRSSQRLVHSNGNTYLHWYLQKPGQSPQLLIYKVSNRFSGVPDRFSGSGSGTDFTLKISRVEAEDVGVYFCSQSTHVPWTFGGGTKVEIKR
3. Ab49 (antibody, human IgG1, kappa, V domains shown, humanized from Ab8; G1; also called Ab3 HC.1a and Ab3 LC.1b) VH: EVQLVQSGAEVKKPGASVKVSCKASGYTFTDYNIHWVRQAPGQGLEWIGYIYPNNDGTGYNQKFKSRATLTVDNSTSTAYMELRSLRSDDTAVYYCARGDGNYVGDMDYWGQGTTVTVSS VL: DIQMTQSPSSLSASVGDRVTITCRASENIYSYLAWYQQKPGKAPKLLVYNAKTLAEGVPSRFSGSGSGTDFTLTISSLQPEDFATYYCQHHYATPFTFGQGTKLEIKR

Result:
1. 0
2. 0
3. 0

For each of the items listed, what is its solution mAb binding, % of PRLR binding?
1. Ab19 (antibody, human IgG1, kappa, V domains shown, humanized from Ab6; G1; also called Ab1 HC.1a and Ab1 LC.1a) VH: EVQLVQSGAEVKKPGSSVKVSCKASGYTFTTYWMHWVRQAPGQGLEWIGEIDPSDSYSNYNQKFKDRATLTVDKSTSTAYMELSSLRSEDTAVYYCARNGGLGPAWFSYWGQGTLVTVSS VL: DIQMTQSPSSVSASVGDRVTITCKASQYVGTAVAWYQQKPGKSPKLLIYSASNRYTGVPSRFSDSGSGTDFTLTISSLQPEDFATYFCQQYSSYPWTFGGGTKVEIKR
2. chAb5 (antibody, human IgG1, kappa, V domains shown, chimeric, murine variable and human G1/kappa constant regions) VH: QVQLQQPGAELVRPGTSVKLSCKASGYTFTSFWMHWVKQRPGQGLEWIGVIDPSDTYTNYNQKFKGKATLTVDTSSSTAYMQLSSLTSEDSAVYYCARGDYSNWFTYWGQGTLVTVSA VL: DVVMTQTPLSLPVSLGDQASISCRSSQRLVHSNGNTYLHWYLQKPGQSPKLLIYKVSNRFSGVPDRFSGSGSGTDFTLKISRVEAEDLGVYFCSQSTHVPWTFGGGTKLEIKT
3. Ab39 (antibody, human IgG1, kappa, V domains shown, humanized from Ab7; G1; also called Ab4 HC.1a and Ab4 LC.1a) VH: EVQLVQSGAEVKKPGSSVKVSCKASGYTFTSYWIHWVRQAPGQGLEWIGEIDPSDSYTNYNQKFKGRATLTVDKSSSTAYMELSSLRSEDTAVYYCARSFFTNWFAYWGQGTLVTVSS VL: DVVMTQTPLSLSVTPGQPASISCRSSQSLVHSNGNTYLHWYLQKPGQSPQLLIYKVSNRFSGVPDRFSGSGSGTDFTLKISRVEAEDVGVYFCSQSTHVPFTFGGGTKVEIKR
4. chAb6 (antibody, human IgG1, kappa, V domains shown, chimeric, murine variable and human G1/kappa constant regions) VH: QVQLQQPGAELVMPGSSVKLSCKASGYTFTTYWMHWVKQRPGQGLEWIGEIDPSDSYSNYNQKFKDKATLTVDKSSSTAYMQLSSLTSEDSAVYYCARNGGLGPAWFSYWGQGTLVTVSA VL: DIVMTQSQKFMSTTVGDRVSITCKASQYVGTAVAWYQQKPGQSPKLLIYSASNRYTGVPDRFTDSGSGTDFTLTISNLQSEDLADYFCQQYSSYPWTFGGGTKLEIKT
5. LFA102 (antibody, human IgG1, kappa, V domains shown, humanized IgG1 kappa comparator (WO 2008022295)) VH: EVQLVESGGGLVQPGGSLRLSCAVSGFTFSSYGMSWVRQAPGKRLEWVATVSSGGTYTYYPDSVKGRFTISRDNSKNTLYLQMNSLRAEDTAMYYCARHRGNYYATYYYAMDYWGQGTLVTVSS VL: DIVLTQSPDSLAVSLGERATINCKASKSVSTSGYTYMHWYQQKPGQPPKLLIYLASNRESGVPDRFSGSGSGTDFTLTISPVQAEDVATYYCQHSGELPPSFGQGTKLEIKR

Result:
1. 0
2. 0
3. 0
4. 0
5. 32
